Origin of the recorded values: patent US20250027068

system: pooled human IgG (human IgG1, 2, 3 and 4)
# Enzyme Activity Endpoint Assay (purified): Fab′2 values compiled below
Kindly answer with a numeric value in ng/µL, unit omitted.

>  <protein>
PRT-646 (protein) MQITSVWTKGVTPLTPEQFRYNNEDVIHAPYLAHQGWYDITKAFDGKDNLLCGAATAGNMLHWWFDQNKTEIEAYLSKHPEKQKIIFNNQELFDLKAAIDTKDSQTNSQLFNYFRDKAFPNLSARQLGVMPDLVLDMFINGYYLNVFKTQSTDVNRPYQDKDKRGGIFDAVFTRGDQTTLLTETTDLYGKGLNDISTIIKQELTEGRALALSHTYANVSISHVINLWGADFNAEGNLEAIYVTDSDANASIGMKKYFVGINAHGHVAISAKKIEGENIGAQVLGLFTLSSGKDIWQKLSLEHHHHHH

>  <reported.value>
582

$$$$

Here is another protein to look at.
Q: Returns the measured Enzyme Activity Endpoint Assay (purified): Fab′2 for the input protein. Input: PRT-404 (protein) MVTSVWTKGVTPPADFTQGEDVFHAPYVANQGWYDITKTFNGKDDLLCGAATAGNMLHWWFDQNKEYIEAYLKKHPEKQKIMFGDQELLDVRKAINTKGSQKNSELFNYFRDKAFPNLSARRLGVMPDLVLDMFINGYYLNVTKTQTTDVNRTYQEKDKRGGIFDAVFTRGDQSKLLTSRHDFKEKGLKEISDLIKQELTEGKALGLSHTYANVRIGHVINLWGADFDSDGNLKAIYVTDSDSNASIGMKKYFVGVNSAGKVAISAKEIKEDNIGAQVLGLFTLSTGQDIWNQTN
Result: 0
